meta.source: ChEMBL document CHEMBL1201862

Test system: OVCAR-5
test.method.notes: NCI tumour cell line growth inhibition, 48 h
Active and inactive are the calls of the source. No stated cut-off is given here; in the data, active = GI50 up to about 1.1 µM and inactive = higher.
outcome.measure: GI50

Prompt line: State the recorded GI50 for this entry: "CC(C)c1ccc(C(O)(C(=O)O)c2ccc(C(C)C)cc2)cc1"
Response line: > 100 µM (inactive)

Prompt line: Please look up its GI50: CC(NC(=O)C(N)Cc1ccc(O)cn1)C(=O)O (centres undefined)
Response line: > 100 µM (inactive)

Prompt line: For the molecule "O=C(Nc1cc(C(=O)Nc2cccc(S(=O)(=O)O)c2)cc(C(=O)Nc2cccc(S(=O)(=O)O)c2)c1)c1cccc(C(=O)Nc2cc(C(=O)Nc3cccc(S(=O)(=O)O)c3)cc(C(=O)Nc3cccc(S(=O)(=O)O)c3)c2)c1" , what GI50 is on record?
Response line: > 100 µM (inactive)

Prompt line: Record request: GI50 value, item "Cn1c(=O)cc(/N=N\c2ccc(Cl)c(Cl)c2)[nH]c1=O"
Response line: 24.8 µM (inactive)

====

System: SR
test.method.notes: NCI tumour cell line growth inhibition, 48 h
Active and inactive are the calls of the source. Rule as the data show it: active = GI50 up to about 1.1 µM and inactive = higher.
outcome.measure: GI50

Prompt line: Quick one: GI50 for "COCn1c(=O)n(C)c(=O)c2c1nc1c(c(=O)n(C)c(=O)n1COC)[n+]2[O-]" ?
Response line: 3.77 µM (inactive)

Prompt line: Recorded GI50 of O=C1C(Cl)C(c2ccc(Cl)cc2)N1n1cnc2ccccc2c1=O (stereo not given) , please.
Response line: 52.7 µM (inactive)

Prompt line: Which GI50 is listed for "COP(=O)(/C=C/c1cc(C(=O)OCc2ccccc2)n(S(=O)(=O)c2ccccc2)c1)OC" ?
Response line: > 10 µM (inactive)

Prompt line: Any idea what its GI50 is? The compound is "Cn1c(=O)c2c(nc3[nH]c(=O)c(Br)cn32)n(C)c1=O"
Response line: > 100 µM (inactive)

Prompt line: Requested field: GI50. Item: "CC(C)c1ccc(C(O)(C(=O)O)c2ccc(C(C)C)cc2)cc1"
Response line: 60.8 µM (inactive)

====

Test system: SF-295
test.method.notes: NCI tumour cell line growth inhibition, 48 h
Activity calls are given as the source filed them. No stated cut-off is given here; in the data, active = GI50 up to about 1.1 µM and inactive = higher.
Kindly supply the reported GI50 values for the records listed here.

Prompt line: Identify the measured GI50 of COC(=O)C1C(O)C(C)C(O)C(C)/C=C\C=C(C)C(=O)Nc2c(C)c(OC(C)=O)c3c(c2O)C(=O)C(C)=C2OCOC(=C23)C(C)=CC(C)(O)C(O)C(C)C1O (stereo not drawn) for SF-295.
Response line: 62.5 µM (inactive)

Prompt line: Value wanted: GI50 (SF-295) of entry "CN(C)c1ccc(/C=C2\C=Cc3ccccc32)cc1"
Response line: 34.3 µM (inactive)

Prompt line: Kindly state the measured GI50 obtained for "O=C1Nc2ccccc2C1=Nc1ccc(S(=O)(=O)Nc2nccs2)cc1" with SF-295.
Response line: > 100 µM (inactive)

Prompt line: Query the reported GI50 for SF-295; item: "COc1ccc(OC)c2sc(N3C(=O)/C(=C/c4cccc(Oc5ccccc5)c4)N=C3c3ccccc3)nc12"
Response line: > 100 µM (inactive)

Prompt line: Reported GI50 for SF-295, given "CC(=O)O/C(=C1\C[C@H]2[C@@H]3CC=C4C[C@@H](OC(C)=O)CC[C@]4(C)[C@H]3CC[C@]2(C)C1=O)C(F)(F)F" ?
Response line: 16.2 µM (inactive)

Prompt line: Notebook: pull reported GI50 for SF-295, entry Nc1cc(C2CCCc3c2[nH]c2ccccc32)ccc1O (stereo not drawn)
Response line: 14.4 µM (inactive)

Prompt line: Give the reported GI50 for "COC(=O)CCc1cc(OC)c2c(c1)[C@H](C(=O)OC)[C@@H](c1ccc(O)c(OC)c1)O2" (system: SF-295).
Response line: 47.1 µM (inactive)

Prompt line: Find GI50 (SF-295) for the entry COC(=O)Cc1c2n(c3ccccc13)C(=O)N1c3ccccc3C(CC(=O)OC)C21 (stereo not drawn)
Response line: 18.8 µM (inactive)

====

Can you tell me GI50 for the items I'm about to list?
Test system: CCRF-CEM
test.method.notes: NCI tumour cell line growth inhibition, 48 h
Calls of active or inactive are those of the source. Cut-off read from the data, not from the text of the source: active = GI50 up to about 1.1 µM and inactive = higher.

Prompt line: Missing value: GI50, CCRF-CEM, entry "CC(=O)c1c(O)nnc(-c2ccc(Cl)cc2)c1-c1ccc(Cl)cc1" . Fill in?
Response line: 45.7 µM (inactive)

Prompt line: Report GI50 for "O=C(N/C(=C\c1cc(Cl)ccc1Cl)c1nc2c(O)nc(S)nc2[nH]1)c1ccccc1" tested on CCRF-CEM.
Response line: 13.4 µM (inactive)

Prompt line: Test system CCRF-CEM; read-out GI50; what value for "O=C(CCc1nnc2s/c(=C\c3ccc4c(c3)OCO4)c(=O)n12)Nc1cc(Cl)ccc1Cl" ?
Response line: > 100 µM (inactive)

Prompt line: Checklist item: GI50 tested on CCRF-CEM, entry CCCCCCCCCCCCCCCCCCNc1ccn(C2OC(COP(=O)(O)OCC(COP(=O)(O)OCC3OC(n4cc(C)c(=O)[nH]c4=O)CC3N=[N+]=[N-])OCCCCCCCCCCCCCCCCCC)C(O)C2O)c(=O)n1 (stereo not drawn) , value?
Response line: > 100 µM (inactive)

Prompt line: # query: GI50 | item CC(C)CC(NC(=O)C(Cc1ccccc1)NC(=O)[C@H]1CC[C@H](NC(=O)C(Cc2ccc(OC(C)(C)C)cc2)NC(=O)OC(C)(C)C)C1)C(N)=O (stereo partly drawn) | system: CCRF-CEM
Response line: 14.6 µM (inactive)

Prompt line: Record CCOC(=O)C12CCSC1C1(C#N)C(C#N)=CC2(N=P(c2ccccc2)(c2ccccc2)c2ccccc2)n2c(=O)n(-c3ccccc3)c(=O)n21 (stereo not drawn) : what is its GI50 with CCRF-CEM?
Response line: 34.5 µM (inactive)

Prompt line: Param readout = GI50; param system = CCRF-CEM; param query = "N=C(N)Nc1nc2cc(N)ccc2o1" ; response: value
Response line: > 100 µM (inactive)

Prompt line: GET /values?readout=GI50&system=CCRF-CEM&item= "COC(=O)CCCc1c(-c2[nH]c3ccccc3c2CCCC(=O)OC)[nH]c2ccccc12"
Response line: > 100 µM (inactive)

====

Test system: HCC 2998
test.method.notes: NCI tumour cell line growth inhibition, 48 h
Counter-ions that a name gives are not always drawn. Activity calls are given as the source filed them. Rule as the data show it: active = GI50 up to about 1.1 µM and inactive = higher.
// one of active, inactive, no free text

Prompt line: Recorded test call requested for COc1ccc(Cc2nccc3cc(OC)c(OC)cc23)cc1OC [PAPAVERINE HYDROCHLORIDE]
Response line: inactive

Prompt line: Given "N=C(N)Nc1nc2cc(N)ccc2o1" , state the outcome it received in this test.
Response line: inactive

Prompt line: Status in this test for "CCN(CCCl)CCCCCNc1c2ccccc2nc2ccc(OC)cc12" ?
Response line: active

Prompt line: Called result for "O=[N+]([O-])c1oc2ccc3ccccc3c2c1CCO"
Response line: active

Prompt line: Just curious, what result did CCOC(=O)C1=C(C)N(NC(=O)Nc2ccccc2)C2(N)N(NC(=O)Nc3ccccc3)C(C)=C(C(=O)OCC)C12C#N (stereo not given) get here?
Response line: inactive

====

Kindly state GI50 for each of the entries shown.
System: K562
test.method.notes: NCI tumour cell line growth inhibition, 48 h
Calls of active or inactive are those of the source. No stated cut-off is given here; in the data, active = GI50 up to about 1.1 µM and inactive = higher.

Prompt line: Would you mind telling me what GI50 value was observed for COc1cc(C2c3cc4c(cc3[C@@H](Nc3cccc(O)c3)C3COC(=O)[C@H]23)OCO4)cc(OC)c1O (stereo partly specified) ?
Response line: 1.69 µM (inactive)

Prompt line: Suppose we examine the compound "CO/N=C(/C(=O)OC)c1ccccc1COc1cccc(C(F)(F)F)c1" ; what GI50 value has been reported?
Response line: 18.5 µM (inactive)

Prompt line: Param item = "O=[N+]([O-])c1cc(-c2ccc([As](=O)(O)O)cc2)ccc1[As](=O)(O)O" ; retrieve measured GI50.
Response line: > 100 µM (inactive)

Prompt line: // query GI50 value for entry Cc1ccc([N+](=O)[O-])cc1S(=O)(=O)Nc1ccc(C2=NOC(c3cccs3)C2)cc1 (stereo unspecified)
Response line: 3.58 µM (inactive)

Prompt line: Which GI50 is listed for "COc1ccc(C(=O)/C=C2\c3ccccc3C(=O)N2C)cc1" ?
Response line: 44.1 µM (inactive)

Prompt line: Data request, read-out GI50, for "Cc1nc2c(n1CC(C)(C)C)C(=O)c1ccccc1C2=O"
Response line: 56 µM (inactive)

Prompt line: Please look up its GI50: "O=C(/C=C/c1cccs1)c1ccc(Cl)cc1"
Response line: > 10 µM (inactive)

Prompt line: Dear colleague, I am looking for the recorded GI50 of the following compound: "O=[N+]([O-])c1ccc(-c2nn3c(C45CC6CC(CC(C6)C4)C5)nnc3s2)c(Cl)c1"
Response line: > 100 µM (inactive)

Prompt line: Would you mind telling me what GI50 value was observed for "COc1ccc(OC)c2sc(N3C(=O)/C(=C/c4cccc(Oc5ccccc5)c4)N=C3c3ccccc3)nc12" ?
Response line: 32.1 µM (inactive)

Prompt line: Bench note: what GI50 did "O=C(Cn1c(C(=O)/C=C/c2ccc(Cl)cc2)nc2ccccc21)c1ccc(Cl)cc1" show?
Response line: 6.07 µM (inactive)

Prompt line: For the compound "O=C(CCc1nnc2s/c(=C\c3ccc4c(c3)OCO4)c(=O)n12)Nc1cc(Cl)ccc1Cl" , what GI50 is on record?
Response line: > 100 µM (inactive)
